- MEASUREMENT NOTES: Example 8: Day 5 pharmacokinetics of racemic ranolazine and enantiomers, SR 1500 and 2000 mg bid
- Format: in vivo, human
- CONDITION NOTES: male, human, plasma, oral, 1500 mg, Day 5, 1500 mg SR bid (racemic, Example 2D); read-out: Median tmax
READOUT TYPE: Tmax (h)

| MOLECULE | UNIT ABBREV | Tmax |
| --- | --- | --- |
| COc1ccccc1OCC(O)CN1CCN(CC(=O)Nc2c(C)cccc2C)CC1 (racemic) | h | 4 |
| COc1ccccc1OC[C@@H](O)CN1CCN(CC(=O)Nc2c(C)cccc2C)CC1 [(−)S ranolazine] | h | 4 |
| COc1ccccc1OC[C@H](O)CN1CCN(CC(=O)Nc2c(C)cccc2C)CC1 [(+)R ranolazine] | h | 4 |
